IC50 values for the compounds below.
# METHOD_NOTES: Inhibition of baker's yeast alpha-glucosidase incubated for 30 mins using p-nitrophenyl-alpha-D-glucopyranoside substrate by spectrophotometry
# Parameters: species or system Saccharomyces cerevisiae

Worked examples follow.
INSERT INTO measurements (compound_smiles, measured) VALUES
  ('COc1ccc(COc2cc3c(cc2-c2ccc(C(F)(F)F)cc2)C(=O)CO3)cc1', '10.9 µM'),
  ('COc1cc2c(cc1-c1ccccc1)C(=O)/C(=C/c1ccccc1)O2', '> 100 µM'),
  ('COc1cc2c(cc1-c1ccc(C(F)(F)F)cc1)C(=O)CO2', '21.2 µM'),
  ('O=C1/C(=C/c2ccccc2)Oc2cc(O)ccc21', '> 100 µM'),
  ('COc1ccc(COc2ccc3c(c2)OCC3=O)cc1', '> 100 µM');

Need IC50, item COc1cc2c(cc1-c1ccccc1)C(=O)CO2 20.1 µM

Name the recorded IC50 for COc1cc2c(cc1-c1ccc(F)cc1)C(=O)CO2 . 9.88 µM

Any idea what its IC50 is? The compound is CCOC(=O)/C=C1\Oc2cc(O)c(-c3ccc(C(F)(F)F)cc3)cc2C1=O 14.3 µM

Data request, read-out IC50, for COc1cc2c(cc1-c1ccc(F)cc1)C(=O)/C(=C/c1ccccc1)O2 > 100 µM

Form field: reported IC50 of CCOC(=O)/C=C1\Oc2cc(O)c(-c3ccc(F)cc3)cc2C1=O 11.1 µM

Reported IC50, compound O=C1/C(=C/c2cccc(O)c2)Oc2cc(O)ccc21 : ____ > 100 µM

----------
# METHOD_NOTES: Inhibition of baker's yeast alpha-glucosidase incubated for 30 mins using p-nitrophenyl-alpha-D-glucopyranoside substrate by spectrophotometry
# Parameters: species or system Saccharomyces cerevisiae
OUTCOME_MEASURE: IC50 (µM)
Dear colleague, please return just the value in µM, with no unit written.

INSERT INTO assay_data (compound_smiles, measured) VALUES
  ('CCOC(=O)/C=C1\Oc2cc(OCc3ccc(OC)cc3)ccc2C1=O', 33.4);

Given the compound COc1ccc(COc2cc3c(cc2-c2ccccc2)C(=O)CO3)cc1 , what is its reported IC50? 10.6

So what's the measured IC50 for this one? O=C1/C(=C/c2ccccc2O)Oc2cc(O)ccc21 93

Entry O=C1/C(=C/c2ccc(O)cc2O)Oc2cc(O)ccc21 has what IC50? 79.2

Quick check: IC50 of COc1ccc(COc2cc3c(cc2-c2ccc(F)cc2)C(=O)CO3)cc1 ? 24.9

----------
# METHOD_NOTES: Inhibition of baker's yeast alpha-glucosidase incubated for 30 mins using p-nitrophenyl-alpha-D-glucopyranoside substrate by spectrophotometry
# Parameters: species or system Saccharomyces cerevisiae
Listed molecules paired with reported pIC50
The scale used: pIC50 is minus the common logarithm of the concentration in molar units.

Check out these entries, answers already filled in.
INSERT INTO measurements (molecule, outcome_measure, measured) VALUES
  ('O=C1/C(=C/c2ccccc2)Oc2cc(O)c(-c3ccc(C(F)(F)F)cc3)cc21', 'pIC50', 4.51),
  ('CCOC(=O)/C=C1\Oc2cc(OC)c(-c3ccc(F)cc3)cc2C1=O', 'pIC50', 4.58),
  ('C[C@H]1O[C@H](O[C@H]2[C@H](O)[C@@H](O)[C@@H](O[C@H]3[C@H](O)[C@@H](O)C(O)O[C@@H]3CO)O[C@@H]2CO)[C@H](O)[C@@H](O)[C@@H]1N[C@H]1C=C(CO)[C@@H](O)[C@H](O)[C@H]1O (some centres not stated)', 'pIC50', 4.30),
  ('O=C1/C(=C/c2ccc(O)cc2)Oc2cc(O)ccc21', 'pIC50', 4.12),
  ('COc1ccc(COc2ccc3c(c2)O/C(=C\c2ccccc2)C3=O)cc1', 'pIC50', 4.70);

Field request: pIC50 | item: O=C1c2ccc(O)cc2OC1Cc1ccc(O)c(O)c1 (configuration not stated) 4.20

Report pIC50 for O=C1/C(=C/c2ccc(O)c(O)c2)Oc2cc(O)ccc21 please. 4.17
